target: Human HDAC1 (Homo sapiens); construct: full length with C-terminal His-tag and C-terminal FLAG-tag; His-tag (C); FLAG-tag (C); made in house; host or cells: baculovirus expression system (insect cells); assay: Biochemical HDAC assay with acetylated AMC-labeled peptide substrate, HDAC1; conditions: HDAC1, 2 hours at 30° C.; read-out: IC50 (nM) HDAC 1
Sequence (Q13547 whole entry): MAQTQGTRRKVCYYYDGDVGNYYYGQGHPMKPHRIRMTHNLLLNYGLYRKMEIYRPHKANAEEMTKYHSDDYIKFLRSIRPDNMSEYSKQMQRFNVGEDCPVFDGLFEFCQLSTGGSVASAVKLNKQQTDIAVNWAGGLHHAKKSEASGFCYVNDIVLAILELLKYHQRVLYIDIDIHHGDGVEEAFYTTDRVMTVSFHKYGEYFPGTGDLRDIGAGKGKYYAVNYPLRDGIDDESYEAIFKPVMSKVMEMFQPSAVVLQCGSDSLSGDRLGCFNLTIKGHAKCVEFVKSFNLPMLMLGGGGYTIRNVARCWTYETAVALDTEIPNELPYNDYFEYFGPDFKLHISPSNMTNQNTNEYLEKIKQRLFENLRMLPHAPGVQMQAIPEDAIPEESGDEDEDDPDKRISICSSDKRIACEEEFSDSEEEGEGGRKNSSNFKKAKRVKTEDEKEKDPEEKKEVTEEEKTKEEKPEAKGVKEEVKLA
measure: IC50

For orientation, consider the following solved cases.
[
  {
    "compoundSmiles": "O=C(NO)c1ccc(CN(c2ccccn2)c2nncs2)cc1",
    "measure": "IC50",
    "result": "> 10000 nM"
  },
  {
    "compoundSmiles": "Cc1nsc(N(Cc2ccc(C(=O)NO)c(F)c2)c2nc(C)ns2)n1",
    "measure": "IC50",
    "result": "> 10000 nM"
  },
  {
    "compoundSmiles": "Cc1noc(N(Cc2ccc(C(=O)NO)cc2)c2ccccn2)n1",
    "measure": "IC50",
    "result": "1000 to 10000 nM"
  }
]

Ask: Given O=C(NO)c1ccc(CN(c2ccccn2)c2cnccn2)cc1 , state its recorded IC50.
Reply: > 10000 nM

Ask: Given Cc1noc(N(Cc2ccc(C(=O)NO)c(F)c2)c2nc(C)ns2)n1 , state its recorded IC50.
Reply: 1000 to 10000 nM

Ask: Given Cn1ccc(N(Cc2ccc(C(=O)NO)cc2)c2ccccn2)n1 , state its recorded IC50.
Reply: 1000 to 10000 nM

Ask: Given O=C(NO)c1ccc(CN(c2ccccn2)c2ccccn2)cc1 , state its recorded IC50.
Reply: > 10000 nM

Origin of the recorded values: patent US10870624B2
